assay: in vitro; conditions: sheep, % cell viability
viability at 1 µM values, listed per item

Worked set:
[[record]]
substance_smiles = "N=C(N)c1ccc2nc(-c3ccc(-c4cccc(-c5ccc(-c6nc7ccc(C(=N)N)cc7[nH]6)o5)c4)o3)[nH]c2c1"
recorded_endpoint = "viability at 1 µM"
reading = "90%"

[[record]]
substance_smiles = "N=C(N)c1ccc(-c2ccc(-c3ccc(C(=N)N)cc3)o2)cc1"
recorded_endpoint = "viability at 1 µM"
reading = "149%"

[[record]]
substance_smiles = "N=C(N)c1ccc2nc(-c3ccc(NC(=O)Nc4ccc(-c5nc6ccc(C(=N)N)cc6[nH]5)cc4)cc3)[nH]c2c1"
recorded_endpoint = "viability at 1 µM"
reading = "105%"


As a next step, examine the molecule that follows.
Entry N=C(N)c1ccc2nc(-c3ccc(-c4ccc(C(=N)N)c(O)c4)o3)[nH]c2c1 has what viability at 1 µM? 150%
